# Experimental system: purified recombinant ILK (Homo sapiens (Human), UniProt Q13418)
# Sequence (Q13418 whole entry): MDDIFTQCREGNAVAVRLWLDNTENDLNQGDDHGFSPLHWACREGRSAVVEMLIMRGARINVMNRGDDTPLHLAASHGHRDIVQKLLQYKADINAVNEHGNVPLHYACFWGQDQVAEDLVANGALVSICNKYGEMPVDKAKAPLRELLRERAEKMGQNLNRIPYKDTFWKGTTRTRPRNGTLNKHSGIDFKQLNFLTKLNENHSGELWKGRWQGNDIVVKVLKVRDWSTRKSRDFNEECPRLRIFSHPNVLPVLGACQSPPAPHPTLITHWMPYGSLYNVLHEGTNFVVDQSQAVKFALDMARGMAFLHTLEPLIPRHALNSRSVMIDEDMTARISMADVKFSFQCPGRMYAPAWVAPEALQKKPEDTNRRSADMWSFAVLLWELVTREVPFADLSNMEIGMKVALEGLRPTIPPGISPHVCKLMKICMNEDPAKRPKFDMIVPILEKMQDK
# Test summary: ILK binding affinity, EnSpire fluorescence intensity
# Condition info: fluorescence-based binding assay, purified ILK; read-out: KD to ILK
pKd: −log10 of the molar value.
Parameter: pKd

Data request, read-out pKd, for `C#Cc1cc(Nc2ncnc3cc(OCCOC)ccc23)cc(OCCOCC)c1` ~5.56

----------
# Experimental system: UniProt P05181
# Sequence (P05181 whole entry): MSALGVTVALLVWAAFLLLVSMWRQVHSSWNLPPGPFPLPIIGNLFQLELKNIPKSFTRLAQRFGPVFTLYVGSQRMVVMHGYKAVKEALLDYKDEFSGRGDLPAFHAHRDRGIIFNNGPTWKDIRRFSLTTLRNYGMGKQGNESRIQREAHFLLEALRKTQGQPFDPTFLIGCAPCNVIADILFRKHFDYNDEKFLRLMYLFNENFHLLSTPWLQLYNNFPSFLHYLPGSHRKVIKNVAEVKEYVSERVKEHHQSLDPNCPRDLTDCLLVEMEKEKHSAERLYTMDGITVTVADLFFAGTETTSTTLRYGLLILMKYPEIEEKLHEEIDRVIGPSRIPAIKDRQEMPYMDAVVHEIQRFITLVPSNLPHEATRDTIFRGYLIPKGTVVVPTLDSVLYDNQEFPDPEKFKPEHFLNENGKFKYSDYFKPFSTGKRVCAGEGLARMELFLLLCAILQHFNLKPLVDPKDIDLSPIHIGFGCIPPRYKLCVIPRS
# Test summary: CYP inhibition in human liver microsomes, 2E1
# Assay type: in vitro ADME
Parameter: IC50

Data request, read-out IC50, for C#Cc1cc(Nc2ncnc3cc(OCCOC)ccc23)cc(OCCOCC)c1 [Compound 1] > 50 µM

----------
# Test summary: Permeability in Caco2 cell line
# Assay type: in vitro ADME
# Condition info: human, Caco-2; Caco2, B-A
Parameter: Papp B→A (×10⁻⁶ cm/s)
Answers are plain numbers, in ×10⁻⁶ cm/s.

// worked examples, Papp B→A included
Compound	Unit annotation	Papp B→A
C#Cc1cc(Nc2ncnc3cc(OCCOC)ccc23)cc(OCCOCC)c1	×10⁻⁶ cm/s	7.31
C[C@H]1O[C@@H](O[C@H]2[C@@H](O)C[C@H](O[C@H]3[C@@H](O)C[C@H](O[C@H]4CC[C@@]5(C)[C@H](CC[C@@H]6[C@@H]5C[C@@H](O)[C@]5(C)[C@@H](C7=CC(=O)OC7)CC[C@]65O)C4)O[C@@H]3C)O[C@@H]2C)C[C@H](O)[C@@H]1O	×10⁻⁶ cm/s	16.6
COc1cc2nc(N3CCN(C(=O)c4ccco4)CC3)nc(N)c2cc1OC	×10⁻⁶ cm/s	30.1

Turning to the following compound.
Data request, read-out Papp B→A, for CC(C)NCC(O)COc1cccc2ccccc12 (stereo not shown) 15.9

----------
# Test summary: Metabolic stability in rat liver microsomes
# Assay type: in vitro ADME
# Condition info: Rat liver microsomes; read-out: Scaled-up CLint
Parameter: CLint scaled (mL/min/kg)
One number for each entry, in mL/min/kg.

Data request, read-out CLint scaled, for C#Cc1cc(Nc2ncnc3cc(OCCOC)ccc23)cc(OCCOCC)c1 [Compound 1] 155

----------
# Test summary: Permeability in Caco2 cell line
# Type: in vitro ADME
# Condition info: human, Caco-2, Caco2, BL-AP; read-out: Recovery (%)BL-AP
Hi there, I'd appreciate the recorded recovery for every entry that follows.
Answers are plain numbers, in %.

// worked examples, recovery included
Molecule	Value reported
C[C@H]1O[C@@H](O[C@H]2[C@@H](O)C[C@H](O[C@H]3[C@@H](O)C[C@H](O[C@H]4CC[C@@]5(C)[C@H](CC[C@@H]6[C@@H]5C[C@@H](O)[C@]5(C)[C@@H](C7=CC(=O)OC7)CC[C@]65O)C4)O[C@@H]3C)O[C@@H]2C)C[C@H](O)[C@@H]1O	96.5
COc1cc2nc(N3CCN(C(=O)c4ccco4)CC3)nc(N)c2cc1OC	99
C#Cc1cc(Nc2ncnc3cc(OCCOC)ccc23)cc(OCCOCC)c1	53.5

Turning to the following molecule.
Data request, read-out recovery, for CC(C)NCC(O)COc1cccc2ccccc12 (stereo not shown) 80

----------
# Test summary: Permeability in Caco2 cell line
# Type: in vitro ADME
# Condition info: human, Caco-2; Caco2
Parameter: efflux ratio
Numbers only.

// worked examples, efflux ratio included
Compound	efflux ratio
C[C@H]1O[C@@H](O[C@H]2[C@@H](O)C[C@H](O[C@H]3[C@@H](O)C[C@H](O[C@H]4CC[C@@]5(C)[C@H](CC[C@@H]6[C@@H]5C[C@@H](O)[C@]5(C)[C@@H](C7=CC(=O)OC7)CC[C@]65O)C4)O[C@@H]3C)O[C@@H]2C)C[C@H](O)[C@@H]1O	27
C#Cc1cc(Nc2ncnc3cc(OCCOC)ccc23)cc(OCCOCC)c1	0.48
CC(C)NCC(O)COc1cccc2ccccc12 (stereo not shown)	0.82

Data request, read-out efflux ratio, for `COc1cc2nc(N3CCN(C(=O)c4ccco4)CC3)nc(N)c2cc1OC` 2.41

----------
# Test summary: Protein binding in human plasma
# Type: in vitro ADME
Parameter: recovery (%)
One number for each entry, in %.

Data request, read-out recovery, for `C#Cc1cc(Nc2ncnc3cc(OCCOC)ccc23)cc(OCCOCC)c1` 98.8

----------
Hi there, I'd appreciate the recorded IC50 for every entry that follows.
# Experimental system: UniProt P10632
# Sequence (P10632 whole entry): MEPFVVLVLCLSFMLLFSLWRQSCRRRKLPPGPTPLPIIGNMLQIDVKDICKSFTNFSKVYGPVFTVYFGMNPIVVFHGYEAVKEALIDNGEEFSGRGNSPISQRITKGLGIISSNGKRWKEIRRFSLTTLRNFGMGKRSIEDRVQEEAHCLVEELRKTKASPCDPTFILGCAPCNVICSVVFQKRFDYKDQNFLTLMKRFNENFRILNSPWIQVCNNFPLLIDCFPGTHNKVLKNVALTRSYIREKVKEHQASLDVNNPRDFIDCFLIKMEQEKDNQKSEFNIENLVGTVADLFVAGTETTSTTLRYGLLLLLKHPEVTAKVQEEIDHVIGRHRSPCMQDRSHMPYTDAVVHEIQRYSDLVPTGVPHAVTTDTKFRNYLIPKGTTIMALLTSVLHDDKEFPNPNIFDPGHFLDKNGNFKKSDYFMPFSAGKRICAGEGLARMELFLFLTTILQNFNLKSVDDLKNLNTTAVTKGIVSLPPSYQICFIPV
# Test summary: CYP inhibition in human liver microsomes, 2C8
# Assay type: in vitro ADME
One number for each entry, in µM.

# map each compound to its IC50
1. C#Cc1cc(Nc2ncnc3cc(OCCOC)ccc23)cc(OCCOCC)c1
2. C=C[C@H]1C[N@@]2CC[C@H]1C[C@@H]2[C@@H](O)c1ccnc2ccc(OC)cc12 [Quinidine, reference compound]

[3.24, 3.72]

----------
# Test summary: Metabolic stability in mouse liver microsomes
# Format: in vitro ADME
# Condition info: Mouse liver microsomes; read-out: Scaled-up CLint
Parameter: CLint scaled

Data request, read-out CLint scaled, for `C#Cc1cc(Nc2ncnc3cc(OCCOC)ccc23)cc(OCCOCC)c1` 10.3 L/h/kg

----------
# Test summary: Metabolic stability in human liver microsomes
# Assay type: in vitro ADME
# Condition info: Human Liver Microsomes; read-out: CLint (μL/min/mg protein)
Parameter: microsomal CLint

Data request, read-out microsomal CLint, for `C#Cc1cc(Nc2ncnc3cc(OCCOC)ccc23)cc(OCCOCC)c1` 39.8 µL/min/mg
